experiment: AUC in HIV-1 infected patient at 100 mg, po bid coadministered with 400 mg, po bid of Lopinavir and NRTI; format: ADME, organism-based; settings: human, plasma
Observed property: AUC

CC(C)c1nc(CN(C)C(=O)N[C@H](C(=O)N[C@@H](Cc2ccccc2)C[C@H](O)[C@H](Cc2ccccc2)NC(=O)OCc2cncs2)C(C)C)cs1    3.58 µg·h/mL

---

test: Cmax in HIV-1 infected patient at 100 mg, po bid coadministered with 400 mg, po bid of Lopinavir and 300 mg, po qd of atazanavir; assay type: ADME, organism-based; design: dose 100 mg, route oral; conditions: human, in vivo
Observed property: Cmax (ng/mL)

CC(C)c1nc(CN(C)C(=O)N[C@H](C(=O)N[C@@H](Cc2ccccc2)C[C@H](O)[C@H](Cc2ccccc2)NC(=O)OCc2cncs2)C(C)C)cs1 [RITONAVIR]    468

---

assay: Cmax in HIV-1 infected patient at 400 mg, po bid coadministered with 100 mg, po bid of ritonavir and 300 mg, po qd of atazanavir; format: ADME, organism-based; set-up: dose 400 mg, route oral; conditions: human, in vivo
Observed property: Cmax (ng/mL)

Cc1cccc(C)c1OCC(=O)N[C@@H](Cc1ccccc1)[C@@H](O)C[C@H](Cc1ccccc1)NC(=O)[C@H](C(C)C)N1CCCNC1=O    5250

---

test: AUC in HIV-1 infected patient at 300 mg, po qd coadministered with 400 mg, po bid and 100 mg, po bid of Lopinavir and ritonavir respectively; type: ADME, organism-based; settings: human, plasma
Observed property: AUC (ng·h/mL)

COC(=O)N[C@H](C(=O)N[C@@H](Cc1ccccc1)[C@@H](O)CN(Cc1ccc(-c2ccccn2)cc1)NC(=O)[C@@H](NC(=O)OC)C(C)(C)C)C(C)(C)C    26400

---

experiment: AUC in HIV-1 infected patient at 100 mg, po qd coadministered with 300 mg, po qd of atazanavir and NRTI; conditions: human, plasma
Observed property: AUC (ng·h/mL)

CC(C)c1nc(CN(C)C(=O)N[C@H](C(=O)N[C@@H](Cc2ccccc2)C[C@H](O)[C@H](Cc2ccccc2)NC(=O)OCc2cncs2)C(C)C)cs1    7770

---

test: Apparent oral clearance in HIV-1 infected patient at 300 mg, po qd coadministered with 400 mg, po bid and 100 mg, po bid of Lopinavir and ritonavir respectively; format: ADME, organism-based; settings: human, in vivo
Observed property: CL/F (mL/min)

COC(=O)N[C@H](C(=O)N[C@@H](Cc1ccccc1)[C@@H](O)CN(Cc1ccc(-c2ccccn2)cc1)NC(=O)[C@@H](NC(=O)OC)C(C)(C)C)C(C)(C)C    185

---

experiment: Apparent oral clearance in HIV-1 infected patient at 400 mg, po bid coadministered with 100 mg, po bid of ritonavir with NRTI; format: ADME, organism-based; conditions: human, in vivo
Observed property: CL/F (mL/min)

Cc1cccc(C)c1OCC(=O)N[C@@H](Cc1ccccc1)[C@@H](O)C[C@H](Cc1ccccc1)NC(=O)[C@H](C(C)C)N1CCCNC1=O    99

---

assay: AUC in HIV-1 infected patient at 400 mg, po bid coadministered with 100 mg, po bid of ritonavir and 300 mg, po qd of atazanavir; type: ADME, organism-based; settings: human, plasma
Observed property: AUC (ng·h/mL)

Cc1cccc(C)c1OCC(=O)N[C@@H](Cc1ccccc1)[C@@H](O)C[C@H](Cc1ccccc1)NC(=O)[C@H](C(C)C)N1CCCNC1=O    48500

---

assay: Apparent oral clearance in HIV-1 infected patient at 400 mg, po bid coadministered with 100 mg, po bid of ritonavir and 300 mg, po qd of atazanavir; assay type: ADME, organism-based; conditions: human, in vivo
Observed property: CL/F (mL/min)

Cc1cccc(C)c1OCC(=O)N[C@@H](Cc1ccccc1)[C@@H](O)C[C@H](Cc1ccccc1)NC(=O)[C@H](C(C)C)N1CCCNC1=O    133

---

test: Oral clearance in HIV-1 infected patient at 300 mg, po qd coadministered with 100 mg of ritonavir, po qd and NRTI; assay type: ADME, organism-based; conditions: human, in vivo
Observed property: CL/F (mL/min)

COC(=O)N[C@H](C(=O)N[C@@H](Cc1ccccc1)[C@@H](O)CN(Cc1ccc(-c2ccccn2)cc1)NC(=O)[C@@H](NC(=O)OC)C(C)(C)C)C(C)(C)C [ATAZANAVIR]    154

---

assay: Half life in HIV-1 infected patient at 400 mg, po bid coadministered with 100 mg, po bid of ritonavir and 300 mg, po qd of atazanavir; assay type: ADME, organism-based; details: human, in vivo
Observed property: half-life (h)

Cc1cccc(C)c1OCC(=O)N[C@@H](Cc1ccccc1)[C@@H](O)C[C@H](Cc1ccccc1)NC(=O)[C@H](C(C)C)N1CCCNC1=O    6.56

---

experiment: Cmax in HIV-1 infected patient at 100 mg, po qd coadministered with 300 mg, po qd of atazanavir and NRTI; settings: human, in vivo
Observed property: Cmax (ng/mL)

CC(C)c1nc(CN(C)C(=O)N[C@H](C(=O)N[C@@H](Cc2ccccc2)C[C@H](O)[C@H](Cc2ccccc2)NC(=O)OCc2cncs2)C(C)C)cs1 [RITONAVIR]    869

---

experiment: AUC in HIV-1 infected patient at 100 mg, po bid coadministered with 400 mg, po bid of Lopinavir and 300 mg, po qd of atazanavir; format: ADME, organism-based; conditions: human, plasma
Observed property: AUC

CC(C)c1nc(CN(C)C(=O)N[C@H](C(=O)N[C@@H](Cc2ccccc2)C[C@H](O)[C@H](Cc2ccccc2)NC(=O)OCc2cncs2)C(C)C)cs1    3290 ng·h/mL

---

assay: Half life in HIV-1 infected patient at 100 mg, po bid coadministered with 300 mg, po qd of atazanavir and NRTI; conditions: human, in vivo
Observed property: half-life (h)

CC(C)c1nc(CN(C)C(=O)N[C@H](C(=O)N[C@@H](Cc2ccccc2)C[C@H](O)[C@H](Cc2ccccc2)NC(=O)OCc2cncs2)C(C)C)cs1    4.58

---

test: Half life in HIV-1 infected patient at 400 mg, po bid coadministered with 100 mg, po bid of ritonavir and NRTI; format: ADME, organism-based; details: human, in vivo
Observed property: half-life (h)

Cc1cccc(C)c1OCC(=O)N[C@@H](Cc1ccccc1)[C@@H](O)C[C@H](Cc1ccccc1)NC(=O)[C@H](C(C)C)N1CCCNC1=O    8.21

---

assay: Cmax in HIV-1 infected patient at 400 mg, po bid coadministered with 100 mg, po bid of ritonavir and NRTI; format: ADME, organism-based; set-up: dose 400 mg, route oral; conditions: human, in vivo
Observed property: Cmax (ng/mL)

Cc1cccc(C)c1OCC(=O)N[C@@H](Cc1ccccc1)[C@@H](O)C[C@H](Cc1ccccc1)NC(=O)[C@H](C(C)C)N1CCCNC1=O    6850
